Test system: SK-MEL-28 melanoma
Test: NCI-60 one-dose screen, 48 h
Conditions: 10 µM unless noted
The panel holds about 83,000 compounds, 20% with a hit somewhere; the sample as a whole holds those more often. Calls of active or inactive are those of the source. How the source made its calls: active means growth percent below 10; inactive means the rest.
The reply should be one of these categories: active, inactive

CNC(=O)c1cc(-c2ccc(NC(=O)Nc3ccc(N4CCOCC4)c(C(F)(F)F)c3)cc2)nc2cccnc12	inactive
COc1cc(N=Cc2sc(Nc3nccs3)nc2O)cc(OC)c1OC	inactive

Prompt: Dear all, I need the recorded test outcome for COc1cc(/C=C/C(=O)c2ccc(F)cc2)ccc1Oc1nc(NCCO)nc(N2CCOCC2)n1 , thank you.
Response: inactive

Prompt: Outcome? N#Cc1c(-c2ccc(Cl)cc2)nc(SCc2ccc([N+](=O)[O-])cc2)nc1N1CCNCC1
Response: active

Prompt: Give the logged outcome of this assay for the following molecule: CC(C)NC(=O)c1cc(-c2ccc(NC(=O)Nc3ccc(N4CCOCC4)c(C(F)(F)F)c3)cc2)nc2cccnc12
Response: inactive

Prompt: # outcome recorded in this test, key = NS(=O)(=O)c1ccc(Nc2nc(Nc3ccccc3)nc(-n3nc(-c4ccccc4)cc3-c3ccccc3)n2)cc1
Response: inactive

Prompt: What did this assay record as the result for Clc1ccc2oc3c(NCCCN4CCOCC4)c4ccccc4nc3c2c1 ?
Response: inactive

Prompt: Identify the outcome logged in this assay for the molecule shown: COc1ccc(NC(=O)c2sc3nc(-c4cnccn4)cc(-c4cccs4)c3c2N)cc1
Response: inactive

Prompt: I would be grateful if you could indicate the recorded call for N[C@@H](Cc1cn(-c2c3ccccc3nc3ccccc23)nn1)C(=O)O .
Response: inactive

----------
Tested on: SNB-75 CNS
Assay: NCI-60 one-dose screen, 48 h (100 = growth as untreated, 0 = no growth, -100 = all killed)
Conditions: 10 µM unless noted
About 83,000 compounds went through this panel and 20% of them were active in at least one assay; those are over-represented in the sample as a whole.
Hi all, reminder that labels come from growth, split as low value = under 50%, medium value = from 50% up to 90%, high value = 90% and over

Worked set:
CN(C)CCCOc1c2ccc(Cl)cc2nc2c1oc1ccccc12	low value
CC(=O)Oc1ccccc1C(=O)Nc1ccc(C(=O)/C=C/c2ccncc2)cc1	low value
Cn1c(SCC(=O)Nc2ccc(-c3nc4ccc([N+](=O)[O-])cc4[nH]3)cc2)nc2ccccc2c1=O	high value
O=C(CSc1nccc(=O)[nH]1)Nc1ccc(-c2nc3ccccc3[nH]2)cc1	high value
N#Cc1c(-c2ccc(Cl)cc2)nc(SCc2ccccc2)nc1N1CCNCC1	medium value
CC1=C(C)C(=O)C(Nc2ccccc2)=C(Cl)C1=O	medium value

Prompt: Class for COc1cc(-c2ccc3ncnc(NC(C)c4ccccc4)c3c2)cnc1OC (stereo unspecified) ?
Response: low value

Prompt: Entry NS(=O)(=O)c1cccc(Nc2nc(SCC(=O)c3ccc([N+](=O)[O-])cc3)nc3ccccc23)c1 belongs to which category?
Response: low value

Prompt: Which growth band matches CN(C)c1ccc(-c2c(NC(C)(C)C)nc3c(OCCc4ccccc4)cccn23)cc1 ?
Response: low value

Prompt: Sort Cn1cc(-c2cc(N)n3nc(-c4cn(C)c5ccc(F)cc45)cc3n2)c2cc(F)ccc21 into one of the categories.
Response: high value

Prompt: Lab note: which band did Cc1cc2nc3c4cc(Cl)ccc4n(CC(=S)NCCN(C)C)c3nc2cc1C land in?
Response: low value

Prompt: Textbook exercise: identify the category of the molecule given here, CSc1ccc2c(c1)N(C(=O)/C(C#N)=C/c1c[nH]c3ccccc13)c1ccccc1S2 , according to its measured value.
Response: low value

Prompt: Would you mind sorting COc1ccc(COc2ccc(/C=C3/C(=O)Nc4cc(Cl)ccc43)cc2)cc1 into the appropriate category?
Response: medium value

Prompt: Form: Item = N#Cc1nc(-c2ccccc2)oc1N1CC[C@@H](CO)C1 ; Class = ?
Response: high value

Prompt: Given COc1ccc(C(=O)/C=C/c2ccc(OCc3ccc(Cl)cc3)c(OC)c2)cc1OC , name the class its growth places it in.
Response: medium value

Prompt: Band for O=C1c2c(c3c4cccnc4[nH]c3c3ccc4ccccc4c23)C(=O)N1CCO ?
Response: high value

Prompt: Any idea which band Cc1nc(-c2cc3ccccc3oc2=O)ccc1C(=O)/C=C/c1ccc(Cl)c(Cl)c1 is in?
Response: high value

Prompt: # bin lookup: classify O=C(CCN1C(=O)/C(=C/c2ccccc2F)SC1=S)N1CCOCC1 by its growth
Response: high value

Prompt: Field: class (growth) — entry: CCCC(=O)NC(c1cccc(N(C)C)c1)c1cc(C)c2cccnc2c1O (stereo unspecified)
Response: medium value

Prompt: Note: place this molecule into its band. Item: COc1cc(/C=C/C(=O)c2ccccc2)ccc1Oc1nc(NCCO)nc(N2CCOCC2)n1
Response: high value
